Tested on: LOX IMVI
Assay: NCI tumour cell line growth inhibition, 48 h
The source made the active and inactive calls. Cut-off read from the data, not from the text of the source: active = GI50 up to about 1.1 µM and inactive = higher.
attributeMeasured: GI50

* CCOC(=O)C(NC(=O)CC)(Nc1ccccc1OC)C(F)(F)F (stereo not given) | > 100 µM (inactive)
* Nc1nc(NCCCO)cc(=O)[nH]1 | > 100 µM (inactive)
* COC(C/C(=C/CO[Si](C(C)C)(C(C)C)C(C)C)C(=O)N(COCC[Si](C)(C)C)c1ccccc1I)OC | 14.7 µM (inactive)
* O=C(Oc1ccccc1)c1cc2cc(CCl)ccc2oc1=O | 49.4 µM (inactive)
* COc1cc([C@@H]2c3cc4c(cc3[C@@H](NC(=O)c3ccccc3)C3COC(=O)[C@@H]32)OCO4)cc(OC)c1O (stereo not given in full) | 2.52 µM (inactive)
* Cc1ccc(S(=O)(=O)C(C#N)c2nc3ccccc3nc2N2CCOCC2)cc1 (stereo not given) | 16.6 µM (inactive)
* CC(=O)NC(CCCNC(=O)OCc1ccccc1)C(=O)NCc1ccccc1 (stereo not given) | > 100 µM (inactive)
* O=C(O)C1CCCN1Cc1c[nH]c2ccccc12 (stereo not given) | > 100 µM (inactive)
* N=C(N)Nc1ncccc1[N+](=O)[O-] | 33.1 µM (inactive)
* COc1ccc(C(c2ccc(C(C)C)cc(OC)c2=O)c2ccc(C(C)C)cc(OC)c2=O)cc1 | 15.3 µM (inactive)

* * *

System: BT-549
Test: NCI tumour cell line growth inhibition, 48 h
Active and inactive are the calls of the source. No stated cut-off is given here; in the data, active = GI50 up to about 1.1 µM and inactive = higher.
Classes used: active, inactive

* CC(C)(C)OC(=O)C(C#N)C(=O)c1ccc(C(=O)O)[nH]1 (stereo not given) | inactive
* C=C1C(C(O)C[C@H](C)C2O[C@@]3(CCCCO3)CCC2C)O[C@@H]2CCC3(CCC(/C=C/[C@@H](C)C4CC(C)=CC5(O4)O[C@H](C[C@](C)(O)C(=O)O)CCC5O)O3)OC2[C@@H]1O (stereo not given in full) | active
* CC(C)(CN)CN | inactive
* C[C@]12CC(c3ccccc3O1)C(C#N)C(=O)N2 (stereo not given in full) | inactive
* CN(C)c1ccc(/C=C(\NC(=O)c2ccccc2)C(=O)NCC(=O)O)cc1 | inactive
* CC(=O)OC1OC(c2ccoc2)C[C@@]12C1CCC3O[C@]3(C)[C@]1(C)[C@H](OC(C)=O)[C@H](OC(C)=O)[C@H]2C (stereo not given in full) | inactive
* COC(=O)c1c(O)ccc2c1c1c(n2Cc2ccc(Cl)cc2Cl)C(=O)c2ccccc2C1=O | inactive
* CCC(c1ccc2cc(O)ccc2c1)C(C)(C)C(=O)O (stereo not given) | inactive
* CC1(C)OCC(C2OC(OC(=O)c3ccc(C(F)(F)F)cc3)C3OC(C)(C)OC23)O1 (stereo not given) | inactive
* Oc1cccnc1CN1CCCCC1 | inactive

* * *

Tested on: MOLT-4
Experiment: NCI tumour cell line growth inhibition, 48 h
Active and inactive are the calls of the source. Rule as the data show it: active = GI50 up to about 1.1 µM and inactive = higher.
Here the recorded GI50 is given for each entry.
attributeMeasured: GI50

• Cc1ccc(S(=O)(=O)N/N=C(\c2nc3ccc([N+](=O)[O-])cc3nc2O)C(O)c2ccccc2Cl)cc1 (stereo not given) = > 100 µM (inactive)
• CS(=O)(=O)C[S+]([O-])C[S+]([O-])C[S+]([O-])CC(NC(=O)CCC(N)C(=O)O)C(=O)O (stereo not given) = > 100 µM (inactive)
• Cc1ccc(S(=O)(=O)C(C#N)c2nc3ccccc3nc2-n2cccn2)cc1 (stereo not given) = > 100 µM (inactive)
• COc1ccc(Br)c(/C=N\c2cccc3cc(OC)c(OC)cc23)c1 = 4.81 µM (inactive)
• CS(=O)(=O)ON1C(=O)c2ccc(N)cc2C1=O = 21.4 µM (inactive)

All values here come from ChEMBL document CHEMBL1201862.
